- ASSAY_DETAILS: gradient 5% acetonitrile 3 min, to 50% in 2 min, to 85% in 15 min, held 3 min, 100 µL/min
- CONDITIONS: column: Zorbax Extend-C18 2.1 x 50 mm; eluents: water / acetonitrile, 0.1% formic acid
TEST_READOUT: RP-LC retention time (s)
Write the value in s as a bare number.

For CCOc1ccc(C(=O)N2CCC3(C2)C(=O)N(C)c2ccccc23)cc1 (stereo unspecified) , what is its reported RP-LC retention time?
802

Looking for the measured RP-LC retention time of `COc1ccc(OCc2nc3ccc(C)cc3[nH]2)cc1` , can you help?
578

Form field: reported RP-LC retention time of `CCOCCCNC(=O)NCCn1cnc2cc(C(=O)N3CCCC3)ccc21`
577

Endpoint output: RP-LC retention time of CCOC(=O)C1=C(CN2CCN(C(C)CC)CC2)NC(=O)NC1c1ccccc1 (stereo unspecified) . Value?
625

Look up RP-LC retention time for this compound: `O=C(Nc1cccc(F)c1)c1nnc(CCCC(=O)N2CCN(c3ccccn3)CC2)s1`
646

Please report the recorded RP-LC retention time for `Cn1cc(C=C2C(=O)Nc3cccnc32)c2ccccc21` .
750

* * *

- ASSAY_DETAILS: gradient 5% acetonitrile 3 min, to 50% in 2 min, to 85% in 15 min, held 3 min, 100 µL/min
- CONDITIONS: column: Zorbax Extend-C18 2.1 x 50 mm; eluents: water / acetonitrile, 0.1% formic acid
hey, just use T if measured RP-LC retention time is less than 900 s, otherwise F

Does this compound meet the criterion RP-LC retention time < 900 s? `O=C(NCc1ccccc1)c1c(O)c2cccnc2n(Cc2ccccc2)c1=O`
F

Given the entry `Cc1[nH]c(C(=O)N2CCC(CC(=O)N(C)Cc3ccco3)CC2)c(C)c1C(=O)OC(C)C` , would its reported RP-LC retention time be below 900 s?
T

Record `CCOc1nn(CC)cc1-c1nnc(SCC(=O)N2CCCc3ccccc32)n1CC` : is its RP-LC retention time strictly below 900 s?
T

Criterion: RP-LC retention time strictly below 900 s. Is it met by `Cn1c(=O)c(N2CCN(C(=O)c3cc(F)cc(F)c3)CC2)nc2cccnc21` ?
T

Would you kindly verify if RP-LC retention time of CCOC(=O)C1CC(=O)c2cc(OC)c(OC)cc2C1 (stereo not given) is strictly less than 900 s?
T

* * *

- ASSAY_DETAILS: gradient 5% acetonitrile 3 min, to 50% in 2 min, to 85% in 15 min, held 3 min, 100 µL/min
- CONDITIONS: column: Zorbax Extend-C18 2.1 x 50 mm; eluents: water / acetonitrile, 0.1% formic acid
TEST_READOUT: RP-LC retention time (s)
Write down the numeric answer in s and omit the unit.

So what's the measured RP-LC retention time for this one? COCCn1c(C2CCN(S(=O)(=O)c3ccc(C(C)C)cc3)C2)nc2cccnc21 (stereo unspecified)
927

Given the entry `COc1ccc(C(=O)N(C2CCCC2)C2(C(=O)NCc3ccccc3)CCN(C(C)=O)CC2)cc1` , report its measured RP-LC retention time.
885

Endpoint output: RP-LC retention time of COCC(C)Nc1ncnc2c1cnn2-c1cccc(Cl)c1 (stereo unspecified) . Value?
925

Which measured RP-LC retention time value corresponds to `CCc1ccc(-c2cc3c(=O)n(Cc4noc(CN5CCOCC5)n4)ccn3n2)cc1` ?
813

Which RP-LC retention time is listed for `CC(C)Cn1c(=O)c(C(=O)NCc2ccccc2)nc2cccnc21` ?
915

Item under review: `Cc1ccc(-c2nc3cnccn3c2Nc2ccc(F)cc2)cc1` . Reported RP-LC retention time?
904

* * *

- ASSAY_DETAILS: gradient 5% acetonitrile 3 min, to 50% in 2 min, to 85% in 15 min, held 3 min, 100 µL/min
- CONDITIONS: column: Zorbax Extend-C18 2.1 x 50 mm; eluents: water / acetonitrile, 0.1% formic acid
TEST_READOUT: RP-LC retention time (s)
Value expressed in s; do not type the unit.

Reported RP-LC retention time, compound `O=C(Cc1ccsc1)N1CCC(c2nncn2-c2ccccc2)CC1` : ____
689

Field request: RP-LC retention time | item: CC(NC(=O)Cc1cn(C)c2ncccc12)c1ccccc1 (centres undefined)
679

RP-LC retention time lookup needed for Cc1sc(NC(=O)CCC2CCCCC2)nc1-c1ccc2c(c1)NC(=O)C(C)O2 (centres undefined) , thanks.
679

Entry under review: CN(CC1CCOC1)C(=O)Nc1cccc(Br)c1 (centres undefined) . Reported RP-LC retention time?
716

Which measured RP-LC retention time value corresponds to `O=C(c1ccccc1F)N1CCC(CNC(=O)C2(c3ccccc3)CCOCC2)CC1` ?
706

Query: RP-LC retention time; subject: CCCCN1CC(c2nc3ccccc3n2CC(=O)N(C)c2ccccc2)CC1=O (centres undefined)
700

Field request: RP-LC retention time | item: `CC(C)c1ccc2c(c1)-c1ccccc1S(=O)(=O)N2CC(=O)NCCCN1CCOCC1`
694

So what does the record say about RP-LC retention time for `COC(=O)c1cnc2nc(C)ccc2c1Nc1ccc(Cl)cc1F` ?
711

Item under review: `Cc1ccsc1C(=O)Nc1ccc(Cn2cncn2)cc1` . Reported RP-LC retention time?
695

* * *

- ASSAY_DETAILS: gradient 5% acetonitrile 3 min, to 50% in 2 min, to 85% in 15 min, held 3 min, 100 µL/min
- CONDITIONS: column: Zorbax Extend-C18 2.1 x 50 mm; eluents: water / acetonitrile, 0.1% formic acid
TEST_READOUT: RP-LC retention time (s)
Numbers only here, please. The scale is s.

Given the entry `O=C(Cn1ccc2sccc2c1=O)NCc1ccccc1` , report its measured RP-LC retention time.
696

GET /values?readout=RP-LC retention time&item= `O=C(NCC1CCOCC1)c1ccc(Br)cc1`
708

Tell me the measured RP-LC retention time of `Cc1ccc2[nH]c(C(=O)NC3CC3)c(N3CCCC3=O)c2c1` , please.
707

RP-LC retention time lookup needed for `COCCC(=O)NCCC1CCN(C(=O)Nc2cc(F)cc(F)c2)CC1` , thanks.
695

Which measured RP-LC retention time value corresponds to `Cc1nc(-c2cccc(-c3noc(C(=O)NCCCN4CCC(C)CC4)n3)c2)cs1` ?
699

* * *

- ASSAY_DETAILS: gradient 5% acetonitrile 3 min, to 50% in 2 min, to 85% in 15 min, held 3 min, 100 µL/min
- CONDITIONS: column: Zorbax Extend-C18 2.1 x 50 mm; eluents: water / acetonitrile, 0.1% formic acid
Would you mind telling me the reported RP-LC retention time of each entry?
The figure you give is taken to be in s; do not add the unit.

Could you share which RP-LC retention time value was measured for `CCOC(=O)c1nc(NCCCN2CCN(c3cc(C)ccc3C)CC2)c2ccccc2n1` ?
715

Name the recorded RP-LC retention time for COCCCNC(=O)C1CCCN(c2nc3ccc(Cl)cc3[nH]2)C1 (stereo not given) .
610

Need RP-LC retention time of `O=C(Cn1nc2nc(N3CCCC3)ccn2c1=O)Nc1ccc(Cl)cc1` , thanks.
714

Please give the measured RP-LC retention time for this compound: `O=C(NCCc1c[nH]c2ccc(Cl)cc12)c1ccccc1Cl`
873

What value of RP-LC retention time has been recorded for this entry: `COc1ccc(-c2nc3ccc(C)cn3c2Nc2ccc3c(c2)OCCO3)cc1`
692

Which RP-LC retention time is listed for `CCc1nnc(-c2ccc3ccn(CC(=O)NCc4cc(OC)c(OC)c(OC)c4)c3c2)o1` ?
760

Which RP-LC retention time value belongs to `CC(C)N1CCn2c(nc3cc(C(=O)NCc4cccc(Cl)c4)ccc32)C1=O` ?
733

Requested read-out: RP-LC retention time. Entry: `COc1ccc(-n2c(=O)c(C(=O)NC3CCCC3)c(O)c3cccnc32)cc1`
1170

I'd like to know its RP-LC retention time. The compound in question is Cc1nc(-c2ccc(OC3CCN(C(=O)NC(C)C)C3)cc2)no1 (stereo not given)
730

For the compound `O=C(C1CCN(S(=O)(=O)c2cc(-c3noc(C4CCC4)n3)cs2)CC1)N1CCCCC1` , what RP-LC retention time is on record?
971

Give the measured RP-LC retention time of `O=C(Cn1nc2n(c1=O)CCCCC2)Nc1cccc(Cl)c1` .
730

Requested read-out: RP-LC retention time. Entry: `Cc1cc(Cl)ccc1-n1ncc2c(N3CCN(CCO)CC3)ncnc21`
613

Name the reported RP-LC retention time value associated with the compound `O=C(NC1CC1)C1CCN(S(=O)(=O)c2ccc3[nH]c4c(c3c2)CCCCC4)CC1`
862

For the compound O=C(NCCN1CCCCCC1)C1CCCN(c2ncc(-c3cccc(F)c3)cn2)C1 (stereo not given) , what RP-LC retention time is on record?
715

Field request: RP-LC retention time | item: `O=C(Nc1cccc(Cl)c1F)N1CC(F)(F)C[C@H]1CN1CCCC1`
662

I have this compound here, `CCn1c(=O)c(C(=O)NCc2ccc(C)o2)nc2cccnc21` , and I need its recorded RP-LC retention time.
766

RP-LC retention time for `Cc1cc(S(=O)(=O)Nc2cccn3cnnc23)ccc1F` ?
686

Entry `CCc1nnc(-c2ccc(S(=O)(=O)N3CCCCC3)o2)o1` has what RP-LC retention time?
824

Given the compound `CCn1cc(-c2nc(CC(=O)NC3CCCC3)cs2)c2cccnc21` , what is its reported RP-LC retention time?
848

Which value of RP-LC retention time has been reported for O=C(c1ccc(OCC2CCCN2C(=O)C2CC2)cc1)N1CCCC1 (stereo not given) in the records?
714

I have this compound here, `COc1ccc2[nH]cc(CN3CCC([C@H]4[C@@H](OC)C(=O)N4C(C)C)CC3)c2c1` , and I need its recorded RP-LC retention time.
623

Given the entry `N#Cc1cccc(NC(=O)c2cc(C3CC3)n3nccc3n2)c1` , report its measured RP-LC retention time.
942

GET /values?readout=RP-LC retention time&item= `OC(c1ccccc1)(c1ccccc1)c1nccn1-c1ccccc1`
754

For the compound `Cc1ccc(NC(=O)Cn2nc(C(=O)N3CCCC3)c3ccccc32)cc1F` , what RP-LC retention time is on record?
884

Need RP-LC retention time, item `N#Cc1cccc(NC(=O)Cn2cccc(-c3nc(-c4ccccc4)no3)c2=O)c1`
828
